Source: patent US20120101037A1

- Measured on: T1, human GIPR (glucose-dependent insulinotropic polypeptide receptor) (human, UniProt P48546 22-466)
- T1 sequence (looked up): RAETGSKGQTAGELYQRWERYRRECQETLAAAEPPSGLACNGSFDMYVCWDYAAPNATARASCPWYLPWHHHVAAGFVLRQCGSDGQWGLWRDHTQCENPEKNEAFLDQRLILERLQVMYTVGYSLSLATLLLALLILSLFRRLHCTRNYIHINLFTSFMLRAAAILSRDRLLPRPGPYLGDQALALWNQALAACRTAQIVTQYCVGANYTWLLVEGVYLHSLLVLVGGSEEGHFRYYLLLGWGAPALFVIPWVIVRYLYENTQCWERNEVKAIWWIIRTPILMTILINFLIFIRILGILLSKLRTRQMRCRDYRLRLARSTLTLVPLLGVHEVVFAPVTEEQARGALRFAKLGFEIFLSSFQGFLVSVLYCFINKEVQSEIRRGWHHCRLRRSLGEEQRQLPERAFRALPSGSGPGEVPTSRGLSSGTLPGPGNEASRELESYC
- Experimental protocol: cell-based or functional assay
Non-standard residues stand in square brackets, D forms with d. Groups on a side chain read outwards from the residue. Primed or numbered codes have the meaning given here. *: point of attachment. dPhe(3,5-F2) = N[C@H](Cc1cc(F)cc(F)c1)C(=O)O; dPhe(3-Cl) = N[C@H](Cc1cccc(Cl)c1)C(=O)O; dPhe(4-Cl) = N[C@H](Cc1ccc(Cl)cc1)C(=O)O; dPhe(2-Cl) = N[C@H](Cc1ccccc1Cl)C(=O)O; dPhe(3-F) = N[C@H](Cc1cccc(F)c1)C(=O)O; Desaminotyrosyl = O=C(CCc1ccc(O)cc1)*; dPhe(2-F) = N[C@H](Cc1ccccc1F)C(=O)O; dPhe(3,4,5-F3)′ = not defined here; Hydrocinnamoyl = O=C(CCc1ccccc1)*; SSA = succinimidyl succinamide
Outcome measure: % activation of cAMP
// return the numeric value with its unit appended

Examples with answers:
- Binder: "Ac-[dY]AEGTFISDYSIAMDAIHQQDFVNWLLAQK([SSA-PEGm 12,000])-NH2"
  % activation of cAMP: "100%"
- Binder: "Ac-[dPhe(3,5-F2)]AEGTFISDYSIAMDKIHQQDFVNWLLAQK-NH2 (also: 1:2 TFA salt)"
  % activation of cAMP: "99.6%"
- Binder: "Ac-[dPhe(2-F)]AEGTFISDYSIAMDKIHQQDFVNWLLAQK-NH2 (also: 1:2 TFA salt)"
  % activation of cAMP: "99.8%"
- Binder: "[Hydrocinnamoyl]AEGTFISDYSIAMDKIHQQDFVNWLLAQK-NH2 (also: 1:2 TFA salt)"
  % activation of cAMP: "101%"
- Binder: "Ac-[dPhe(3,4,5-F3)′]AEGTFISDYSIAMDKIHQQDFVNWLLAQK-NH2 (also: 1:2 TFA salt)"
  % activation of cAMP: "100%"
- Binder: "Ac-[dPhe(3-F)]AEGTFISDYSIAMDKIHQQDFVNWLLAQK-NH2 (also: 1:2 TFA salt)"
  % activation of cAMP: "98%"
- Binder: "Ac-[dW]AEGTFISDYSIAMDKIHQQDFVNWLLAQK-NH2 (also: 1:2 TFA salt)"
  % activation of cAMP: "102%"
- Binder: "Ac-[dY]AEGTFISDYSIAMDAIHQQDFVNWLLAQK-NH2 (also: 1:1 TFA salt)"
  % activation of cAMP: "100%"
- Binder: "AAEGTFISDYSIAMDKIHQQDFVNWLLAQK (position 1 is acetylated D-3-pyridylalanine (Ac-(D)3Pya); C-terminal amide (NH2))"
  % activation of cAMP: "102%"
- Binder: "Ac-[dPhe(2-Cl)]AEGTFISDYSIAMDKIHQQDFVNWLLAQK-NH2 (also: 1:2 TFA salt)"
  % activation of cAMP: "104%"

Exercise: Give me measured % activation of cAMP, please, for this binder: Ac-[dY]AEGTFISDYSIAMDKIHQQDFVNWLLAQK-NH2 (also: 1:2 TFA salt)
Solution: 102%

Exercise: Answer with the recorded % activation of cAMP of Ac-[dPhe(4-Cl)]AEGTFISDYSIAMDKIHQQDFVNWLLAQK-NH2 (also: 1:2 TFA salt) only.
Solution: 106%

Exercise: Quickly give me recorded % activation of cAMP for [Desaminotyrosyl]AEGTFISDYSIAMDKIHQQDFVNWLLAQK-NH2 (also: 1:2 TFA salt)
Solution: 103%

Exercise: Read the entry Ac-[dY]AEGTFISDYSIAMDAIHQQDFVNWLLAQK([SSA-PEGm 30,000])-NH2 and write its reported % activation of cAMP.
Solution: 101%

Exercise: Quote % activation of cAMP reported for Ac-YAEGTFISDYSIAMDKIHQQDFVNWLLAQK-NH2 (also: 1:2 TFA salt) please.
Solution: 100%

Exercise: Query % activation of cAMP for Ac-[dPhe(3-Cl)]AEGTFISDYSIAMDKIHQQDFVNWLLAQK-NH2 (also: 1:2 TFA salt)
Solution: 106%

Exercise: Recall and state the measured % activation of cAMP for Ac-[dY]AEGTFISDYSIAMDAIHQQDFVNWLLAQK([SSA-PEGm 20,000])-NH2 .
Solution: 102%

Exercise: Answer with the recorded % activation of cAMP for the binder listed here: Ac-[dF]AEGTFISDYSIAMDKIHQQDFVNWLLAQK-NH2 (also: 1:2 TFA salt)
Solution: 102%
